test: growth suppression of yeast trafficking mutant, preliminary HTS, modulators of trafficking downstream of Golgi apparatus project, 1536-format plate, OD 615 nm (AID 637); details: yeast transport mutant growth, absorbance 615 nm, 18 h; stronger effect = higher value
Calls of active or inactive are those of the source. Cut-off read from the data, not from the text of the source: active = inhibition above about 30%; inactive = the rest.
Please go through the items and note down their inhibition.

Input: Looking for the measured inhibition of Cc1nccn1CCCN1C(=O)OC2(CCCCC2)C1(C)O (centres undefined) , can you help?
Output: -1.29% (inactive)

Input: // same read-out, input: `COCCn1c(C)cc(C(=O)COC(=O)c2ccc(N3CCCC3=O)cc2)c1C`
Output: 2.18% (inactive)

Input: // same read-out, input: CC(CN1CCCCC1)OC(=O)c1ccc2c(c1)OCO2 (centres undefined)
Output: 6.72% (inactive)

Input: // same read-out, input: `COc1ccccc1C(=O)Nc1c2c(nn1-c1cccc(C)c1C)CS(=O)(=O)C2`
Output: 1.94% (inactive)

Input: // same read-out, input: O=C(Cn1c(C(=O)NCC2CCCO2)cc2sccc21)c1ccccc1 (centres undefined)
Output: -5.56% (inactive)

Input: // same read-out, input: `O=S(=O)(Nn1cnnc1)c1ccccc1Cl`
Output: 7.09% (inactive)

Input: // same read-out, input: `O=C(c1ccccc1)N1CCN(Cc2ccccc2Br)CC1`
Output: -4.6% (inactive)

Input: // same read-out, input: `COc1ccc(-n2ncc3c(NCc4cccs4)ncnc32)cc1`
Output: -1.64% (inactive)

Input: // same read-out, input: CC1Cc2ccccc2N1C(=O)c1cccnc1 (centres undefined)
Output: -0.16% (inactive)

Input: // same read-out, input: `CCOC(=O)c1ccccc1NC(=O)c1c(O)c2ccccc2n(CC)c1=O`
Output: 0.16% (inactive)

Input: // same read-out, input: `CCn1c(SCC(=O)C(C)(C)C)nnc1-c1cnccn1`
Output: -9.35% (inactive)

Input: // same read-out, input: `CCCn1c(=N)n(CCOc2ccc(OC)cc2)c2ccccc21`
Output: 3.49% (inactive)

Input: // same read-out, input: `Cc1cc(C(=O)Cn2cncn2)c(C)n1CCc1ccc(F)cc1`
Output: 3.11% (inactive)

Input: // same read-out, input: CC1(C)S[C@@H]2[C@H](NC(=O)C(C(=O)O)c3ccccc3)C(=O)N2[C@H]1C(=O)O (some centres undefined)
Output: -2.67% (inactive)

Input: // same read-out, input: CC(C)(C)NC(=O)C(Cc1ccccc1)NS(=O)(=O)c1cccc2nsnc12 (centres undefined)
Output: -1.09% (inactive)

Input: // same read-out, input: `O=C(NC1CCCCCC1)c1cc(S(=O)(=O)N2CCC3(CC2)OCCO3)ccc1F`
Output: 3.27% (inactive)

Input: // same read-out, input: `COc1ccc(OC)c(S(=O)(=O)Nc2ccccc2SC)c1`
Output: -1.45% (inactive)

Input: // same read-out, input: `CCC(C(=O)Nc1ncccn1)(C(F)(F)F)C(F)(F)F`
Output: 0.82% (inactive)

Input: // same read-out, input: `Cc1nn(-c2nc3ccccc3[nH]2)c(N)c1-c1ccccc1`
Output: 2.7% (inactive)

Input: // same read-out, input: `CC(C)CC(=O)N1CCN(S(=O)(=O)c2ccc(F)cc2)CC1`
Output: 27% (inactive)

Input: // same read-out, input: `CCOc1ccccc1Nc1nc2ccccc2[nH]1`
Output: -6.03% (inactive)

Input: // same read-out, input: `NC(=O)C1(N2CCCCC2)CCN(CC(=O)Nc2cc(Cl)ccc2Cl)CC1`
Output: 2.79% (inactive)

Input: // same read-out, input: `O=C(CSCc1cccs1)N1CCCC1`
Output: 5.41% (inactive)

Input: // same read-out, input: `COc1oc(-c2ccccc2)nc1C(F)(F)F`
Output: -2.38% (inactive)
